# testedTarget: Heat shock protein HSP90 (Homo sapiens) (UniProt P07900+P08238)
measuredMetric: ΔTm (°C)
Give bare numbers, in °C.

{"sampleSmiles": "Cc1ccc2nc3c(c(N)c2c1)CC[C@@H]1[C@H]2CCCN4CCC[C@@H](CN31)[C@@H]24", "testedTarget": "Heat shock protein HSP90 (Homo sapiens) (UniProt P07900+P08238)", "readoutUnits": "°C", "ΔTm": -4.27}
{"sampleSmiles": "O=C1C[C@@H]2[C@H]3CCCN4CCC[C@@H](CN12)[C@@H]34", "testedTarget": "Heat shock protein HSP90 (Homo sapiens) (UniProt P07900+P08238)", "readoutUnits": "°C", "ΔTm": 0.44}
{"sampleSmiles": "Nc1c2c(nc3ccc(C(F)(F)F)cc13)N1C[C@@H]3CCCN4CCC[C@@H]([C@H]34)[C@H]1CC2", "testedTarget": "Heat shock protein HSP90 (Homo sapiens) (UniProt P07900+P08238)", "readoutUnits": "°C", "ΔTm": 10.9}
{"sampleSmiles": "Nc1c2c(nc3ccccc13)N1C[C@@H]3CCCN4CCC[C@@H]([C@H]34)[C@H]1CC2", "testedTarget": "Heat shock protein HSP90 (Homo sapiens) (UniProt P07900+P08238)", "readoutUnits": "°C", "ΔTm": -3.12}
{"sampleSmiles": "c1ccc(/N=C2\\CCC[C@@H]3[C@H]4CCCN5CCC[C@@H](CN23)[C@@H]45)cc1", "testedTarget": "Heat shock protein HSP90 (Homo sapiens) (UniProt P07900+P08238)", "readoutUnits": "°C", "ΔTm": -0.57}
{"sampleSmiles": "Cc1c(/N=C2\\CCC[C@@H]3[C@H]4CCCN5CCC[C@@H](CN23)[C@@H]45)cccc1[N+](=O)[O-]", "testedTarget": "Heat shock protein HSP90 (Homo sapiens) (UniProt P07900+P08238)", "readoutUnits": "°C", "ΔTm": -1.06}
{"sampleSmiles": "c1ccc(Oc2ccc(/N=C3\\CCC[C@@H]4[C@H]5CCCN6CCC[C@@H](CN34)[C@@H]56)cc2)cc1", "testedTarget": "Heat shock protein HSP90 (Homo sapiens) (UniProt P07900+P08238)", "readoutUnits": "°C", "ΔTm": -1.3}
{"sampleSmiles": "CCOc1ccc(/N=C2\\CCC[C@@H]3[C@H]4CCCN5CCC[C@@H](CN23)[C@@H]45)cc1", "testedTarget": "Heat shock protein HSP90 (Homo sapiens) (UniProt P07900+P08238)", "readoutUnits": "°C", "ΔTm": 0}

Items follow; give ΔTm for each.
1. COc1ccc2nc3c(c(N)c2c1)CC[C@@H]1[C@H]2CCCN4CCC[C@@H](CN31)[C@@H]24
2. Nc1c2c(nc3ccc(Br)cc13)N1C[C@@H]3CCCN4CCC[C@@H]([C@H]34)[C@H]1CC2
3. c1ccc(-c2ccc(/N=C3\CCC[C@@H]4[C@H]5CCCN6CCC[C@@H](CN34)[C@@H]56)cc2)cc1
4. CC(C)c1ccc(/N=C2\CCC[C@@H]3[C@H]4CCCN5CCC[C@@H](CN23)[C@@H]45)cc1
5. N#Cc1ccccc1/N=C1\CCC[C@@H]2[C@H]3CCCN4CCC[C@@H](CN12)[C@@H]34
6. Nc1c2c(nc3ccc(Cl)cc13)N1C[C@@H]3CCCN4CCC[C@@H]([C@H]34)[C@H]1CC2
7. O=C1CCC[C@@H]2[C@H]3CCCN4CCC[C@@H](CN12)[C@@H]34
8. Nc1c2c(nc3ccc(F)cc13)N1C[C@@H]3CCCN4CCC[C@@H]([C@H]34)[C@H]1CC2

Reply:
1. -5.48
2. -7.58
3. -4.91
4. -1.24
5. -1.44
6. -6.58
7. 0.04
8. -2.3

Sample Nc1c2c(nc3ccc([N+](=O)[O-])cc13)N1C[C@@H]3CCCN4CCC[C@@H]([C@H]34)[C@H]1CC2 ; ΔTm observed: -0.24
